- target entity: Full-length USP19 (Homo sapiens, UniProt O94966)
- Construct: Full-length USP19 was purchased from Boston Biochem (E-576); purchased Boston Biochem E-576
- assay summary: USP19 fluorescence polarisation (FP) homogeneous assay with Ubiquitin-Lys-TAMRA substrate
- Assay type: biochemical
- setup conditions: 2.5 nM USP19, 30 min pre-incubation, average of at least two duplicate experiments
Property: IC50; scope: individual compounds
observable: IC50

- O=C(NCc1ccccc1)N1CCC(O)(Cn2ccc(-c3ccccc3)cc2=O)C2(CCCC2)C1 (stereo not shown): < 0.5 µM
- C[C@H](CC1CCCCC1)C(=O)N1CCC(O)(Cn2cnc3ccccc3c2=O)C2(CCCC2)C1 (stereo partly shown): 0.5 to 5 µM
- O=C(NCc1ccccc1)N1CCC(O)(Cn2cnc(N3CCOCC3)cc2=O)C2(CCCC2)C1 (stereo not shown): 50 to 250 µM
- CN(CC1CC(F)C1)C(=O)N1CCC(O)(Cn2cnc(-c3ccccc3)cc2=O)C2(CCCC2)C1 (stereo not shown): 5 to 50 µM
- C[C@H](CC1CCCCC1)C(=O)N1CCC(O)(CN2CCN(C)CC2=O)C2(CCCC2)C1 (stereo partly shown): 0.5 to 5 µM
- O=C(N1CCC(O)(Cn2cnc3c(cnn3-c3ccccc3)c2=O)C2(CCCC2)C1)N1CCNC[C@H]1c1ccccc1 (stereo partly shown): < 0.5 µM
- O=C(N1CC[C@@](O)(Cn2cnc(-c3ccccc3)cc2=O)C2(CCCC2)C1)N1CCNC[C@H]1c1ccc(F)cc1: < 0.5 µM

* * *

- target entity: Full-length USP19 (Homo sapiens, UniProt O94966)
- Sequence (O94966 1-1318): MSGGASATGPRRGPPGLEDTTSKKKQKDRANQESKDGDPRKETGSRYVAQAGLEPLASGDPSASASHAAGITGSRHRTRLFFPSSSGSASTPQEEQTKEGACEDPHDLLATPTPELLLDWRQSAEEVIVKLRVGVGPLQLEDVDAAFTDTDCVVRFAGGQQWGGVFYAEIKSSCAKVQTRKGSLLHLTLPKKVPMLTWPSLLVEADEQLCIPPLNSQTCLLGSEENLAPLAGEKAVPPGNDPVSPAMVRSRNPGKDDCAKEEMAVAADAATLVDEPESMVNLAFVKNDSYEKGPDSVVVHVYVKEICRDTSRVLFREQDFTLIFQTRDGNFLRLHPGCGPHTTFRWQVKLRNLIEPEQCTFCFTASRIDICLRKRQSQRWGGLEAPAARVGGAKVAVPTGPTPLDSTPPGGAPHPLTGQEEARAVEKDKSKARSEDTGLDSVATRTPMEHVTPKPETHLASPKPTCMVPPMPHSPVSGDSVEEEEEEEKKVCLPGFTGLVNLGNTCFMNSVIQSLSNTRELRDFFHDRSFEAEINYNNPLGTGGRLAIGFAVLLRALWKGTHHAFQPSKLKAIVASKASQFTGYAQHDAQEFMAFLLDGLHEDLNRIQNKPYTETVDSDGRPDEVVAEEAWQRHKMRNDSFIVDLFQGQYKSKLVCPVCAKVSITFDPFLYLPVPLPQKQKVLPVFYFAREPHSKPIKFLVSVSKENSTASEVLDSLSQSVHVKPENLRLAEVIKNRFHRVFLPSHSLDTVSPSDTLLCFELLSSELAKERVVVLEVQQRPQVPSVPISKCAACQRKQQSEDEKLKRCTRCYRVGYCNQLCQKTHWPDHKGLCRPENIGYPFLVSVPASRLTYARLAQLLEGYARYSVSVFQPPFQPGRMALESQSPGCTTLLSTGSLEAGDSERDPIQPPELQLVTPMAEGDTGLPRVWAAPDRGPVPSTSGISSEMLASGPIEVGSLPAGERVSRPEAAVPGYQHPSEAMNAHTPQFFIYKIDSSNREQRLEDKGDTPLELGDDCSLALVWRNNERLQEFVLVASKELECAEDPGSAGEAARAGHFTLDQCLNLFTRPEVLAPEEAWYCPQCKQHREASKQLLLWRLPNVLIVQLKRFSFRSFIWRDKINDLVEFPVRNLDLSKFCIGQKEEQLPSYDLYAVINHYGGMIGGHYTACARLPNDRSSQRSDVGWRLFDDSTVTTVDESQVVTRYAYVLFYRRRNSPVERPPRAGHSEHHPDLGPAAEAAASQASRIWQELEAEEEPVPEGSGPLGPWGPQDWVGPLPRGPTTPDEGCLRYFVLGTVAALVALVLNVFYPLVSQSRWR
pIC50: −log10 of the molar value.
observable: pIC50

• C[C@H](CC1CCCCC1)C(=O)N1CCC(O)(CN2CCN(C(=O)OC(C)(C)C)CC2=O)C2(CCCC2)C1 (stereo partly drawn) = > 6.30
• Cc1cn(CC2(O)CCN(C(=O)N3CCNC[C@H]3c3ccccc3)CC23CCCC3)c(=O)cn1 (stereo partly drawn) = > 6.30
• CNc1cc(=O)n(C[C@]2(O)CCN(C(=O)N3CCNC[C@H]3c3ccccc3)CC23CCCC3)cn1 = > 6.30
• C[C@H](CC1CCCCC1)C(=O)N1CCC(O)(Cn2cnc3cc(F)c(F)cc3c2=O)C2(CCCC2)C1 (stereo partly drawn) = > 6.30
• O=C(N1CCC(O)(Cn2cnc(-c3ccccc3)cc2=O)C2(CCOCC2)C1)N1CCOC[C@H]1c1ccccc1 (stereo partly drawn) = > 6.30
• O=C(N1CCOC(F)(F)C1)N1CCC(O)(Cn2cnc(-c3ccccc3)cc2=O)C2(CCCC2)C1 (stereo not drawn) = 4.30 to 5.30
• COc1ccc2ccn(CC3(O)CCN(C(=O)[C@H](C)CC(F)(F)F)CC34CCCC4)c(=O)c2c1 (stereo partly drawn) = 3.60 to 4.30
• O=C(N1CCC(O)(Cn2ccc3ccncc3c2=O)C2(CCCC2)C1)N1CCOC[C@H]1c1ccccc1 (stereo partly drawn) = 5.30 to 6.30
• C[C@H](CC1CCCCC1)C(=O)N1CCC(O)(Cn2ccc3ccc(F)cc3c2=O)C2(CCCC2)C1 (stereo partly drawn) = 5.30 to 6.30
• CN(Cc1cccnc1)C(=O)N1CCC(O)(Cn2cnc(-c3ccccc3)cc2=O)C2(CCCC2)C1 (stereo not drawn) = 4.30 to 5.30
• C[C@H](CC(F)(F)F)C(=O)N1CCC(O)(CN2CCN(C(=O)c3ccccc3)CC2=O)C2(CCCC2)C1 (stereo partly drawn) = 4.30 to 5.30
• O=C(NCc1ccccc1)N1CCC(O)(Cn2cnc(-c3ccncc3)cc2=O)C2(CCCC2)C1 (stereo not drawn) = 5.30 to 6.30
• C[C@H](CC1CCCCC1)C(=O)N1CCC(O)(CN2CCN(C(=O)OCc3ccccc3)CC2=O)C2(CCCC2)C1 (stereo partly drawn) = 5.30 to 6.30
• O=C(N1CC[C@@](O)(Cn2cnc(-c3ccccc3)cc2=O)C2(CCCC2)C1)N1CCS(=O)(=O)CC1c1ccccc1 (stereo partly drawn) = > 6.30
• C[C@H](CC1CCCCC1)C(=O)N1CCC(O)(CN2Cc3ncccc3C2=O)C2(CCCC2)C1 (stereo partly drawn) = 5.30 to 6.30

* * *

Reported values of IC50 for individual entries
- target entity: Full-length USP19 (Homo sapiens)
observable: IC50

- C[C@H](CC1CCCCC1)C(=O)N1CCC(O)(Cn2ccncc2=O)C(C)(C)C1 (some centres unmarked) [Example 1]: 500 to 5000 nM
- C[C@H](CC1CCCCC1)C(=O)N1CCC(O)(Cn2cc(-c3ccncc3)ncc2=O)C(C)(C)C1 (some centres unmarked) [Example 14]: 500 to 5000 nM
- C[C@H](CC(F)(F)F)C(=O)N1CCC(O)(Cn2cnc3ccc(Cl)cc3c2=O)C2(CCCC2)C1 (some centres unmarked) [Example 147]: 500 to 5000 nM
- O=C(N1CC[C@@](O)(Cn2cnc(N3CCC(F)(F)C3)cc2=O)C2(CCCC2)C1)N1CCNC[C@H]1c1ccccc1 [Example 359]: < 500 nM
- O=C(N1CC[C@@](O)(Cn2cnc(-c3ccc(OC4CC4)cc3)cc2=O)C2(CCCC2)C1)N1CCNC[C@H]1c1ccccc1 [Example 350]: < 500 nM
- COCC1COCCN1C(=O)N1CCC(O)(Cn2cnc(-c3ccccc3)cc2=O)C2(CCCC2)C1 (centres unmarked) [Example 231]: 5000 to 50000 nM
- O=C(N1CCC(O)(Cn2cnc(-c3ccccc3)cc2=O)C2(CCCC2)C1)N1CCOCC1c1cccs1 (centres unmarked) [Example 235]: < 500 nM
- C[C@H](CC1CCCCC1)C(=O)N1CCC(O)(Cn2cc(C(=O)N(C)C)ncc2=O)C2(CCCC2)C1 (some centres unmarked) [Example 10]: < 500 nM
- Cn1cc(-c2ccn(C[C@]3(O)CCN(C(=O)N4CCNC[C@H]4c4ccccc4)CC34CCCC4)c(=O)c2)cn1 [Example 329]: < 500 nM
- O=C(N1CCC(O)(Cn2cnc(-c3ccccc3)cc2=O)C2(CCCC2)C1)N1CCC12CCOC2 (centres unmarked) [Example 236]: 5000 to 50000 nM
- C[C@H](CC1CCCCC1)C(=O)N1CCC(O)(Cn2c(=O)c3cncnc3n2C)C2(CCCC2)C1 (some centres unmarked) [Example 174]: 5000 to 50000 nM
- O=C(N1CC[C@@](O)(Cn2cnc(-c3ccccc3)cc2=O)C2(CCCC2)C1)N1CCNCC1c1ccc(F)c(F)c1 (some centres unmarked) [Example 379]: < 500 nM
- C[C@H](CC1CCCCC1)C(=O)N1CCC(O)(Cn2ccncc2=O)C2(CCCC2)C1 (some centres unmarked) [Example 3]: 500 to 5000 nM
- Cc1cccc(-c2cc(=O)n(C[C@]3(O)CCN(C(=O)N4CCNC[C@H]4c4ccccc4)CC34CCCC4)cn2)c1 [Example 341]: < 500 nM
- CNc1ncc2c(=O)n(CC3(O)CCN(C(=O)[C@H](C)CC(F)(F)F)CC34CCCC4)ccc2n1 (some centres unmarked) [Example 57]: 500 to 5000 nM
- CC(=O)N1CCN(CC2(O)CCN(C(=O)[C@H](C)CC3CCCCC3)CC23CCCC3)C(=O)C1 (some centres unmarked) [Example 48]: < 500 nM
- C[C@H](CC(F)(F)F)C(=O)N1CCC(O)(Cn2cc(C(=O)N(C)C)c3ccccc3c2=O)C2(CCCC2)C1 (some centres unmarked) [Example 130]: 50000 to 250000 nM
- COc1c(F)cccc1-c1cc(=O)n(C[C@]2(O)CCN(C(=O)N3CCNC[C@H]3c3ccccc3)CC23CCCC3)cn1 [Example 383]: < 500 nM
- CCn1ncc2c(=O)n(CC3(O)CCN(C(=O)[C@H](C)CC4CCCCC4)CC34CCCC4)cnc21 (some centres unmarked) [Example 124]: < 500 nM
- O=C(N1CC[C@@](O)(Cn2cnc(-c3ccccc3)cc2=O)C2(CCCC2)C1)N1CCNC[C@H]1c1ccccc1F [Example 370]: < 500 nM
- O=C(N1CCCC2(CC2)C1)N1CCC(O)(Cn2cnc(-c3ccccc3)cc2=O)C2(CCCC2)C1 (centres unmarked) [Example 250]: 5000 to 50000 nM
- O=C(N1CC[C@@](O)(Cn2cnc(C3CC3)cc2=O)C2(CCCC2)C1)N1CCNC[C@H]1c1cc(F)ccc1F [Example 378]: < 500 nM
- O=C(N1CC[C@@](O)(Cn2cnc(-c3ccccc3)cc2=O)C2(CCCC2)C1)N1CCOC[C@H]1c1ccccc1 [Example 211]: < 500 nM
- C[C@H](CC(=O)N1CCC(O)(CN2CCN(c3ccccc3F)CC2=O)CC1)c1ccccc1 [Example 24]: 50000 to 250000 nM
- C[C@H](CC(F)(F)F)C(=O)N1CCC(O)(CN2CCN(c3ccccc3)CC2=O)C2(CCCC2)C1 (some centres unmarked) [Example 110]: < 500 nM
- CC(CC1CCCCC1)C(=O)N1CCC(O)(CN2CC3(CCCCC3)CC2=O)C(C)(C)C1 (centres unmarked) [Example 46]: 50000 to 250000 nM
- O=C(N1CC[C@@](O)(Cn2cnc(-c3ccccc3)cc2=O)C2(CCCC2)C1)N1CCSC[C@H]1c1cc(F)ccc1F [Example 393]: < 500 nM
- O=C(N1CC[C@@](O)(Cn2cnc(-c3ccccc3F)cc2=O)C2(CCCC2)C1)N1CCNC[C@H]1c1cc(F)cc(F)c1 [Example 392]: < 500 nM
- O=C(N1CC[C@@](O)(Cn2cnc(-c3ccccc3)cc2=O)C2(CCCC2)C1)N1CCNC[C@H]1c1cc(F)ccc1F [Example 373]: < 500 nM
